Target: human Nav1.1 (Homo sapiens, UniProt P35498)
Construct: host or cells: HEK293
Assay: Amplification of Nav1.1-derived voltage-gated sodium current (Nav1.1 current), automated patch clamp (Test 1)
Assay type: cell-based
Settings: Concentration for evaluation 3 μM; HEK293 cell line stably expressing human Nav1.1
endpoint.name: Nav1.1 current amplification rate (%)

Below, 3 compounds whose answers are already recorded.
1. CC1CC=C(c2ccc(=O)n(CC(=O)N3CCc4c(C5CN(CCO)C5)cccc43)n2)CC1 (stereo not shown) :: 67
2. O=C(Cn1nc(C2=CCC3(CC2)CC3(F)F)ccc1=O)N1CCc2c(N3CCOCC3)cccc21 (stereo not shown) :: 345
3. CC1CC=C(c2ccc(=O)n(CC(=O)Nc3cc4nccn4cn3)n2)CC1 (stereo not shown) :: 58

I: CC1CC=C(c2ccc(=O)n(CC(=O)Nc3ccc4oc(CN5CCOCC5)nc4c3)n2)CC1 (stereo not shown)
II: CN(c1cnc2cnn(CC(=O)N3CCc4cc(C#N)ccc43)c2n1)C1CCC1
stdin: Input pair: I , II . Output: entry with lower Nav1.1 current amplification rate (%). Give the chosen item's label as your response.
stdout: II

----------
Biological target: human Nav1.1 (Homo sapiens, UniProt P35498)
Construct: host or cells: HEK293
Assay: Amplification of Nav1.1-derived voltage-gated sodium current (Nav1.1 current), automated patch clamp (Test 1)
Format: cell-based
Conditions: Concentration for evaluation 3 μM; HEK293 cell line stably expressing human Nav1.1
endpoint.name: Nav1.1 current amplification rate (%)

1. CC1CC=C(c2ccc(=O)n(CC(=O)N3CCc4c(-c5ccncc5)cccc43)n2)CC1 (centres unmarked) :: 564
2. CC1CC=C(c2ccc(=O)n(CC(=O)N3CCc4c(C5CCN(C)C5)cccc43)n2)CC1 (centres unmarked) :: 127
3. CC1CC=C(c2ccc(=O)n(CC(=O)Nc3cccc(N4CCOCC4)c3F)n2)CC1 (centres unmarked) :: 115

P: Cc1cc(NC(=O)Cn2nc(C3=CCC(C)CC3)ccc2=O)cc2ncoc12 (centres unmarked)
Q: COc1ncc(-c2cccc3c2CCN3C(=O)Cn2nc(C3=CCC(C)CC3)ccc2=O)cn1 (centres unmarked)
R: CCN1CC(c2cccc3c2CCN3C(=O)Cn2nc(C3=CCC(C)CC3)ccc2=O)C1 (centres unmarked)
S: CC1CC=C(c2ccc(=O)n(CC(=O)Nc3ccn4cc(C5CC5)nc4c3)n2)CC1 (centres unmarked)
T: CC1CC=C(c2ccc(=O)n(CC(=O)N3CCc4c(C5CCNC5)cccc43)n2)CC1 (centres unmarked)
stdin: Falling order of Nav1.1 current amplification rate (%), please. To answer, arrange all of the labels according to the requested order.
stdout: Q, S, P, R, T

----------
Target: human Nav1.1 (Homo sapiens)
Construct: host or cells: HEK293
Assay: Amplification of Nav1.1-derived voltage-gated sodium current (Nav1.1 current), automated patch clamp (Test 1)
Type: cell-based
Conditions: Concentration for evaluation 10 μM; HEK293 cell line stably expressing human Nav1.1
Protocol: Test 1: Evaluation of the Amplification of Nav1.1-Derived Voltage-Gated Sodium Current (Nav1.1 Current) by Using a Cell Line Stably Expressing Human Nav1.1 (1) Preparation of Test Compound Solution […] The effect of test compounds on the amplification of Nav1.1-derived voltage-gated sodium current was evaluated by using a cell line stably expressing human Nav1.1 and HTS automated patch clamp system. […] The Nav1.1 current amplification rates of test compounds were calculated by the following formula: […]
endpoint.name: Nav1.1 current amplification rate (%)

Below, 5 compounds whose answers are already recorded.
1. CC1(C)CCCN(c2ccc(=O)n(CC(=O)Nc3ccc(C#N)cc3)n2)C1 :: 110
2. CC1CC=C(c2ccc(=O)n(CC(=O)N3CC=C(c4ccccn4)CC3)n2)CC1 (stereo not shown) :: 39
3. COc1cnc(C2=CCN(C(=O)Cn3nc(C4=CCC(C)CC4)ccc3=O)CC2)cn1 (stereo not shown) :: 102
4. CC1CCN(c2ccc(=O)n(CC(=O)Nc3ccnc(N(C)C)c3)n2)CC1 :: 48
5. Cc1cc(=O)n(CC(=O)Nc2ccn3ccnc3c2)nc1C1=CCC(C)(C)CC1 :: 337

1: CC1CC=C(c2ccc(=O)n(CC(=O)Nc3ccnc(CO)c3)n2)CC1 (stereo not shown)
2: N#Cc1ccc(NC(=O)Cn2nc(C3CCC(F)(F)CC3)ccc2=O)cc1
3: N#Cc1ccc(NC(=O)Cn2nc(C3=CCCCC3)ccc2=O)cc1
4: COc1cc(C2=CCC(C)CC2)nn(CC(=O)N2CCN(c3cncc(F)c3)CC2)c1=O (stereo not shown)
5: CC1CCN(c2ccc(=O)n(CC(=O)Nc3ccc(C(F)(F)F)nc3)n2)CC1
stdin: Order the records, beginning with the lowest Nav1.1 current amplification rate (%) and ending with the highest. To answer, arrange all of the labels according to the requested order.
stdout: 2, 1, 3, 5, 4

a: CC12CCC(CN(c3ccc(=O)n(CC(=O)Nc4ccc(C#N)cc4)n3)C1)C2(C)C (stereo not shown)
b: CC1CC(C)CN(c2ccc(=O)n(CC(=O)Nc3ccc(C#N)cc3)n2)C1 (stereo not shown) [Example 14]
c: COc1cc(=O)n(CC(=O)N2CCN(c3cncc(F)c3)CC2)nc1C1=CCC(C(F)(F)F)CC1 (stereo not shown)
stdin: Order the records, beginning with the lowest Nav1.1 current amplification rate (%) and ending with the highest. To answer, arrange all of the labels according to the requested order.
stdout: b, a, c
(b: 9%, a: 28%, c: 148%)

P: CC1CC=C(c2ccc(=O)n(CC(=O)N3CCC(c4ccccc4)CC3)n2)CC1 (stereo not shown)
Q: CC1CC=C(c2ccc(=O)n(CC(=O)N3CCc4cc(N5CCOCC5)ccc43)n2)CC1 (stereo not shown)
stdin: Input pair: P , Q . Output: entry with lower Nav1.1 current amplification rate (%). Give the chosen item's label as your response.
stdout: P

1: CCC1(C)CCN(c2ccc(=O)n(CC(=O)Nc3ccc(C#N)cc3)n2)CC1
2: CC1CC=C(c2ccc(=O)n(CC(=O)N3CCC(c4ccccn4)CC3)n2)CC1 (stereo not shown)
3: CC1CCN(c2ccc(=O)n(CC(=O)Nc3ccc4ncoc4c3)n2)CC1
4: CC1CCN(c2ccc(=O)n(CC(=O)Nc3ccc4cnn(C)c4c3)n2)CC1
5: CC1(C)CC=C(c2ccc(=O)n(CC(=O)N3CCN(c4cncc(F)c4)CC3)n2)CC1
stdin: Order the records, beginning with the lowest Nav1.1 current amplification rate (%) and ending with the highest. To answer, arrange all of the labels according to the requested order.
stdout: 2, 4, 3, 1, 5
(2: 13%, 4: 45%, 3: 92%, 1: 158%, 5: 292%)

----------
Target: human Nav1.1 (Homo sapiens, UniProt P35498)
Construct: host or cells: HEK293
Experiment: Amplification of Nav1.1-derived voltage-gated sodium current (Nav1.1 current), automated patch clamp (Test 1)
Format: cell-based
Conditions: HEK293, concentration for evaluation 1 μM; HEK293 stably expressing human Nav1.1; read-out: Nav1.1 current amplification rate (%)
endpoint.name: activation at 1 µM (%)

Below, 3 compounds whose answers are already recorded.
1) CN(c1ncc2cnn(CC(=O)Nc3ccc4ncnn4c3)c2n1)C1CC(C)(C)C1 :: 116
2) CN(CC1CCC1)c1ncc2cnn(CC(=O)Nc3cnc4cccnc4c3)c2n1 :: 158
3) O=C(Cn1ncc2cnc(N3CCC4(CCC4)CC3)nc21)NC1=CC2N=CN=CC2C=C1 (centres unmarked) :: 209

I: O=C(Cn1ncc2cnc(N3CCC4(CCC4)C3)nc21)Nc1ccn2ccnc2c1
II: CC1CCN(c2ncc3cnn(CC(=O)Nc4cnc(C#N)cn4)c3n2)CC1(F)F (centres unmarked)
stdin: Task for the reader: decide whether I or II has the larger activation at 1 µM. Give the chosen item's label as your response.
stdout: II
(II: 132%, I: 26%)

----------
Target: human Nav1.1 (Homo sapiens)
Construct: host or cells: HEK293
Test: Amplification of Nav1.1-derived voltage-gated sodium current (Nav1.1 current), automated patch clamp (Test 1)
Format: cell-based
Settings: concentration for evaluation 50 μM; HEK293 stably expressing human Nav1.1
endpoint.name: Nav1.1 current amplification rate (%)

Below, 2 molecules whose answers are already recorded.
1) CC1CCN(c2ccc3cnn(CC(=O)Nc4ccc(C(F)(F)F)nc4)c3n2)CC1 [Example 879] :: 16
2) CC1CCN(c2ccc3cnn(CC(=O)Nc4ccc5nccn5n4)c3n2)CC1 [Example 880] :: 42

a: CC1(C)CN(c2ccc3cnn(CC(=O)Nc4ccn5ncnc5c4)c3n2)C1 [Example 859]
b: CN(c1ncc2cnn(CC(=O)Nc3ccc4ncnn4c3)c2n1)C1CC1 [Example 818]
stdin: Task for the reader: decide whether a or b has the larger Nav1.1 current amplification rate (%). Give the chosen item's label as your response.
stdout: b

----------
Target: human Nav1.1 (Homo sapiens, UniProt P35498)
Construct: host or cells: HEK293
Experiment: Amplification of Nav1.1-derived voltage-gated sodium current (Nav1.1 current), automated patch clamp (Test 1)
Assay type: cell-based
Conditions: concentration for evaluation 1 μM; HEK293 stably expressing human Nav1.1
endpoint.name: Nav1.1 current amplification rate (%)

Below, 3 molecules whose answers are already recorded.
1) O=C(Cn1ncc2ccc(-c3ccc(F)cc3F)nc21)Nc1ccn2ccnc2c1 [Example 865] :: 14
2) CN(CC1CC1)c1ncc2cnn(CC(=O)Nc3ccn4ncnc4c3)c2n1 [Example 800] :: 55
3) O=C(Cn1ncc2ccc(C3=CCC(F)(F)CC3)nc21)Nc1ccn2ccnc2c1 [Example 867] :: 65

A: O=C(Cn1ncc2ccc(N3CCC4(CC4)C(F)(F)C3)nc21)Nc1ccn2ncnc2c1 [Example 863]
B: CC1CCN(c2ncc3cnn(CC(=O)Nc4ccc5ncnn5c4)c3n2)CC1(F)F (stereo not drawn) [Example 815]
stdin: Task for the reader: decide whether A or B has the larger Nav1.1 current amplification rate (%). Give the chosen item's label as your response.
stdout: B
